Source: patent US4820834A

# STUDY_TARGET: CCK receptor (pancreas) (Rattus norvegicus, UniProt P30551)
# Construct: The whole pancreas was dissected free of fat tissue and was homogenized; from tissue; host or cells: rat pancreas membranes (Sprague-Dawley)
# Sequence (P30551 whole entry): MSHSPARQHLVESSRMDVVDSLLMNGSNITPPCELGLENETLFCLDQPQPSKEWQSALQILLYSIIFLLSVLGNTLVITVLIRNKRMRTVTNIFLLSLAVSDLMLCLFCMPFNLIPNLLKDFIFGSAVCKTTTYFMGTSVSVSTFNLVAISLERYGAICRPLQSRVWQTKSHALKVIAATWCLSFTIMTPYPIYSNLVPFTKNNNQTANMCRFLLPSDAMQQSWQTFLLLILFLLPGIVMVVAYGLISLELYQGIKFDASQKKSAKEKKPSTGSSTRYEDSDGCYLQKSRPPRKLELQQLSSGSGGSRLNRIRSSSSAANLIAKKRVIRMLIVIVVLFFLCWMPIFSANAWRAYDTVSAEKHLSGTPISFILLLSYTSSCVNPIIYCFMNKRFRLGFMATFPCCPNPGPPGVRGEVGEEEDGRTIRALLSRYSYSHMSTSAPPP
# TEST_PROTOCOL: CCK Receptor Binding (Pancreas): inhibition of ^125 I-CCK-33 binding
# Parameters: species or system Male Sprague-Dawley rats
# CONDITION_SET: IC50 ^125 I-CCK Pancreas, rat pancreas membranes, ^125 I-CCK-33, 37° C., 30 minutes
Give measured IC50 for each item. Keep answers brief.

Prompt line: Give IC50 for O=C1[C@@H](Cc2c[nH]c3ccccc23)N=C(c2ccccc2F)c2ccccc2N1CC1CC1 [Example 37] tested on CCK receptor (pancreas) (Rattus norvegicus, UniProt P30551).
Response line: 2200 nM

Prompt line: Give IC50 for CCCCNC(=O)CN1C(=O)C(NC(=O)OCc2ccccc2)N=C(c2ccccc2)c2ccccc21 (stereo not shown) [Example 213] tested on CCK receptor (pancreas) (Rattus norvegicus, UniProt P30551).
Response line: 2100 nM

Prompt line: Give IC50 for O=CNc1ccccc1C(=O)CC1N=C(c2ccccc2F)c2ccccc2NC1=O (stereo not shown) [Example 104] tested on CCK receptor (pancreas) (Rattus norvegicus, UniProt P30551).
Response line: 300 nM

Prompt line: Give IC50 for CN1C(=O)[C@@H](Cc2cn(Cc3ccccc3)c3ccccc23)N=C(c2ccccc2)c2cc(Cl)ccc21 [Example 46] tested on CCK receptor (pancreas) (Rattus norvegicus, UniProt P30551).
Response line: > 100000 nM

---

Give measured IC50 for each item. Keep answers brief.
# STUDY_TARGET: Gastrin receptor (gastric glands) (Cavia porcellus)
# Construct: The washed guinea pig gastric glands prepared as above were resuspended; from tissue; host or cells: guinea pig gastric mucosal glands (male Hartley)
# TEST_PROTOCOL: Gastrin Receptor Binding in Guinea Pig Gastric Glands
# Parameters: species or system guinea pig (male Hartley)
# CONDITION_SET: ^125 I-gastrin, 25° C., 30 minutes, read-out: IC50 ^125 I-Gastrin Gastric Glands
The response must be a number in µM with no trailing unit.

Prompt line: Return reported IC50. Input molecule: O=C(O)CN1C(=O)C(NC(=O)Nc2ccc(Cl)cc2)N=C(c2ccccc2)c2ccccc21 (stereo not drawn)
Response line: 0.12

Prompt line: Return reported IC50. Input molecule: CCN(CC)C(=O)CN1C(=O)C(NC(=O)Nc2ccccc2Cl)N=C(c2ccccc2)c2ccccc21 (stereo not drawn)
Response line: 0.0015

Prompt line: Return reported IC50. Input molecule: O=C1Nc2ccccc2C(c2ccccc2F)=N[C@@H]1CC1CNc2ccccc21 (stereo partly drawn) [Example 9]
Response line: 78

Prompt line: Return reported IC50. Input molecule: `CN1C(=O)[C@@H](NC(=O)c2ccc(C(F)(F)F)cc2)N=C(c2ccccc2)c2ccccc21`
Response line: 6.2

Prompt line: Return reported IC50. Input molecule: Cc1ccc(C2=NC(NC(=O)c3cc4ccccc4[nH]3)C(=O)N(C)c3ccccc32)cc1 (stereo not drawn)
Response line: 0.71

---

# STUDY_TARGET: CCK receptor (brain, cerebral cortex) (Cavia porcellus, UniProt H0VZC5)
# Construct: Cerebral cortex was dissected and used as a receptor source; from tissue; host or cells: guinea pig cerebral cortex membranes (male Hartley)
# TEST_PROTOCOL: biochemical
# Type: binding, Male Hartley guinea pigs
# CONDITION_SET: IC50 ^125 I-CCK Brain, guinea pig cerebral cortex, ^125 I-CCK-33, 25° C., 2 hours
MEASURE: IC50

Prompt line: Give IC50 for CC(C)C[C@@H](NC(=O)OC(C)(C)C)C(=O)N1CC(C[C@H]2N=C(c3ccccc3F)c3ccccc3NC2=O)c2ccccc21 (some centres unmarked) tested on CCK receptor (brain, cerebral cortex) (Cavia porcellus, UniProt H0VZC5).
Response line: > 100 µM

Prompt line: Give IC50 for O=C(NC1N=C(c2ccccc2F)c2ccccc2NC1=O)c1ccc([N+](=O)[O-])cc1 (racemic) tested on CCK receptor (brain, cerebral cortex) (Cavia porcellus, UniProt H0VZC5).
Response line: > 50 µM

Prompt line: Give IC50 for `O=C1Nc2ccc(Cl)cc2C(c2ccccc2)=N[C@@H]1Cc1ccc(OCc2ccccc2)cc1` tested on CCK receptor (brain, cerebral cortex) (Cavia porcellus, UniProt H0VZC5).
Response line: > 100 µM

Prompt line: Give IC50 for Cc1ccc(C(=O)NC2N=C(c3ccccc3F)c3ccccc3NC2=O)cc1 (racemic) tested on CCK receptor (brain, cerebral cortex) (Cavia porcellus, UniProt H0VZC5).
Response line: > 40 µM

Prompt line: Give IC50 for O=C(NC1N=C(c2ccccc2)c2ccccc2NC1=O)c1ccc(Cl)cc1 (racemic) tested on CCK receptor (brain, cerebral cortex) (Cavia porcellus, UniProt H0VZC5).
Response line: > 40 µM

Prompt line: Give IC50 for O=C1Nc2ccccc2C(c2ccccc2F)=NC1CNCC1N=C(c2ccccc2F)c2ccccc2NC1=O (racemic) tested on CCK receptor (brain, cerebral cortex) (Cavia porcellus, UniProt H0VZC5).
Response line: > 100 µM

Prompt line: Give IC50 for CC(C)(C)OC(=O)N[C@H](Cc1c[nH]c2ccccc12)C(=O)NC1N=C(c2ccccc2)c2ccccc2NC1=O (mixture of isomers) tested on CCK receptor (brain, cerebral cortex) (Cavia porcellus, UniProt H0VZC5).
Response line: > 100 µM

Prompt line: Give IC50 for CN1C(=O)[C@@H](NC(=O)[C@@H](N)Cc2ccccc2)N=C(c2ccccc2)c2ccccc21 [Example 84a] tested on CCK receptor (brain, cerebral cortex) (Cavia porcellus, UniProt H0VZC5).
Response line: > 40 µM

---

Give measured IC50 for each item. Keep answers brief.
# STUDY_TARGET: CCK receptor (brain, cerebral cortex) (Cavia porcellus)
# Construct: Cerebral cortex was dissected and used as a receptor source; from tissue; host or cells: guinea pig cerebral cortex membranes (male Hartley)
# TEST_PROTOCOL: biochemical
# Type: binding, Male Hartley guinea pigs
# CONDITION_SET: IC50 ^125 I-CCK Brain, guinea pig cerebral cortex, ^125 I-CCK-33, 25° C., 2 hours

Prompt line: Return reported IC50. Input compound: `CN1C(=O)[C@@H](Cc2cn(Cc3ccccc3)c3ccccc23)N=C(c2ccccc2)c2cc(Cl)ccc21`
Response line: > 100 µM

Prompt line: Return reported IC50. Input compound: `CN1C(=O)[C@@H](Cc2c[nH]c3ccccc23)N=C(c2ccccc2)c2cc(Cl)ccc21`
Response line: > 100 µM

Prompt line: Return reported IC50. Input compound: O=C(NC1N=C(c2ccccc2)c2ccccc2NC1=O)c1ccccc1Cl (racemic)
Response line: > 40 µM

---

Give measured pIC50 for each item. Keep answers brief.
# STUDY_TARGET: Gastrin receptor (gastric glands) (Cavia porcellus, UniProt H0VZC5)
# Construct: The washed guinea pig gastric glands prepared as above were resuspended; from tissue; host or cells: guinea pig gastric mucosal glands (male Hartley)
# Sequence (H0VZC5 1-426): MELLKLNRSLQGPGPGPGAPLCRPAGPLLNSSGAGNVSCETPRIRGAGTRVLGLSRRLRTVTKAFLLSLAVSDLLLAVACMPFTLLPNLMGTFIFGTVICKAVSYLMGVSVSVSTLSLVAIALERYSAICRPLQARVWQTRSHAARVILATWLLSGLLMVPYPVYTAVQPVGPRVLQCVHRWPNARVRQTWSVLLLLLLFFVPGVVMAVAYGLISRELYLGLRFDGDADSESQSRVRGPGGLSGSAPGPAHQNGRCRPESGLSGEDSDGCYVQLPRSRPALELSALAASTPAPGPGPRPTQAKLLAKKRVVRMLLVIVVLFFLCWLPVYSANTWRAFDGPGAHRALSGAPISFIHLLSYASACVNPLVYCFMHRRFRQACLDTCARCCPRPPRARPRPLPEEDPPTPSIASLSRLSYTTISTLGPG
# TEST_PROTOCOL: Gastrin Receptor Binding in Guinea Pig Gastric Glands
# Design: species or system guinea pig (male Hartley)
# CONDITION_SET: ^125 I-gastrin, 25° C., 30 minutes, read-out: IC50 ^125 I-Gastrin Gastric Glands
Note: pIC50 values are expressed as the negative base-10 logarithm of concentration in M.

Prompt line: Return reported pIC50. Input compound: CCOC(=O)CN1C(=O)C(NC(=O)NC(C)c2ccccc2)N=C(c2ccccc2F)c2ccccc21 (stereo not shown)
Response line: 6.40

Prompt line: Return reported pIC50. Input compound: `CN1C(=O)[C@@H](NC(=O)c2ccccc2Cl)N=C(c2ccccc2)c2ccccc21`
Response line: 3.89

Prompt line: Return reported pIC50. Input compound: CC(C)(C)C(=O)OCOC(=O)CN1C(=O)C(NC(=O)c2cc3ccccc3[nH]2)N=C(c2ccccc2)c2ccccc21 (stereo not shown)
Response line: 6.22

Prompt line: Return reported pIC50. Input compound: CN1CCN(C(=O)CN2C(=O)C(NC(=O)OCc3ccccc3)N=C(c3ccccc3)c3ccccc32)CC1 (stereo not shown)
Response line: 5.85

Prompt line: Return reported pIC50. Input compound: CN1C(=O)C(C(O)c2cccs2)N=C(c2ccccc2)c2ccccc21 (racemic)
Response line: 4.59

Prompt line: Return reported pIC50. Input compound: `CN1C(=O)[C@@H](NC(=O)c2cccc(I)c2)N=C(c2ccccc2F)c2ccccc21`
Response line: 6.41

Prompt line: Return reported pIC50. Input compound: CN1C(=O)C(NC(=S)Nc2ccccc2)N=C(c2ccccc2)c2ccccc21 (stereo not shown)
Response line: 5.59

Prompt line: Return reported pIC50. Input compound: `CN1C(=O)[C@H](NC(=O)C2CCCCC2)N=C(c2ccccc2)c2ccccc21`
Response line: 5.82

Prompt line: Return reported pIC50. Input compound: CN1C(=O)C(C(O)c2cn(C)c3ccccc23)N=C(c2ccccc2)c2ccccc21 (racemic) [Example 50a]
Response line: 5.92

Prompt line: Return reported pIC50. Input compound: CN1C(=O)C(NC(=O)c2ccc(C(C)(C)C)cc2)N=C(c2ccccc2F)c2ccccc21 (stereo not shown)
Response line: 5.19

Prompt line: Return reported pIC50. Input compound: Cc1cccc2c1N(C)C(=O)C(NC(=O)c1cc3ccccc3[nH]1)N=C2c1ccccc1 (stereo not shown)
Response line: 6.18

Prompt line: Return reported pIC50. Input compound: O=C(CN1C(=O)C(NC(=O)OCc2ccccc2)N=C(c2ccccc2)c2ccccc21)NCc1ccccc1 (stereo not shown)
Response line: 6.22

Prompt line: Return reported pIC50. Input compound: CN1C(=O)C(C(O)c2cn(C)c3ccccc23)N=C(c2ccccc2)c2ccccc21 (racemic) [Example 50b]
Response line: 4.21

Prompt line: Return reported pIC50. Input compound: `CN1C(=O)[C@@H](NC(=O)c2ccc(I)cc2)N=C(c2ccccc2F)c2ccccc21`
Response line: 6.28

Prompt line: Return reported pIC50. Input compound: `COc1cccc(NC(=O)N[C@H]2N=C(c3ccccc3)c3ccccc3N(C)C2=O)c1`
Response line: 6.72

Prompt line: Return reported pIC50. Input compound: `O=C1Nc2ccc(Cl)cc2C(c2ccccc2)=N[C@@H]1Cc1cn(-c2ccc([N+](=O)[O-])cc2[N+](=O)[O-])cn1`
Response line: 4.12

Prompt line: Return reported pIC50. Input compound: `CN1C(=O)[C@@H](NC(=O)c2ccc(C#N)cc2)N=C(c2ccccc2F)c2ccccc21`
Response line: 5.05
